System: RSK3(Kin.Dom.2-C-terminal)
Construct: gene RPS6KA2
test_settings: concentration: 1 μM, replicates: in singlicate; n = 1;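 further: KINOMEscan kinase panel screen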
Each entry below lists one item and its recorded %Inh value.
Give the quantity in %, number only.

CCc1nc(-c2cccc(C)c2)c(-c2ccncc2)s1
10

// query Could you share which %Inh value was measured for COc1ccc(Nc2nccc(N3CCC(NS(=O)(=O)c4ccc(NC(C)=O)cc4)C3)n2)cc1 (stereo not shown) ?
// result 0

// query Could you share which %Inh value was measured for COc1cc2ncn(-c3cc(OCc4ccncc4)c(C(N)=O)s3)c2cc1OC ?
// result 0

// query Could you share which %Inh value was measured for Cc1nnc(-c2ccc(C)c(-c3ccc(C(=O)O)cc3)c2)o1 ?
// result 0

// query Could you share which %Inh value was measured for CCn1c(-c2nonc2N)nc2ccccc21 ?
// result 19

// query Could you share which %Inh value was measured for COc1ccc(-c2coc3ccc(-c4nnc(SCc5cccc(C#N)c5)o4)cc23)cc1 ?
// result 18

// query Could you share which %Inh value was measured for COc1ccc(CNC(=O)NC2CCN(c3ccnc(Nc4ccc(F)cc4)n3)C2)cc1 (stereo not shown) ?
// result 31

// query Could you share which %Inh value was measured for Cl.NS(=O)(=O)c1cccc(Nc2cc(-c3ccc(F)cc3)n[nH]2)c1 ?
// result 0

// query Could you share which %Inh value was measured for CCc1ccc(-c2ccc3c(c2)-c2nn(C)cc2S(=O)(=O)N3C)cc1 ?
// result 32

// query Could you share which %Inh value was measured for Cc1c(Cn2c(C)nn3c(=O)cc(N4CCO[C@H](C)C4)nc23)cccc1C(F)(F)F ?
// result 0

----------
System: PCTK3
Construct: gene CDK18
test_settings: concentration: 1 μM, replicates: in singlicate; n = 1
Each entry below lists one item and its recorded %Inh value.
Give the quantity in %, number only.

// query Give PCTK3 %Inh for Nc1ncnc2c1ncn2-c1cccc(F)c1 [SKF-97560]
// result 10

----------
System: CHEK2
test_settings: concentration: 1 μM, replicates: in singlicate; n = 1
metric_name: %Inh (%)
Give the quantity in %, number only.

Worked set:
CCS(=O)(=O)c1ccc(OC)c(Nc2ncc(-c3ccc(F)cc3)o2)c1.Cl
0
Nc1nc(-c2ccccc2F)c(-c2ccnc3ccccc23)s1
14
Nc1ncnc2c1ncn2-c1ccc(Cl)cc1
0

// query Could you share which %Inh value was measured for COc1cc2ncn(-c3cc(OCc4ccncc4Br)c(C(N)=O)s3)c2cc1OC ?
// result 10

// query Could you share which %Inh value was measured for COc1cc2ncn(-c3cc(OCc4ccc(S(C)(=O)=O)cc4)c(C(N)=O)s3)c2cc1OC ?
// result 0

// query Could you share which %Inh value was measured for Cn1c(=O)c(F)c(Nc2ccc(I)cc2F)c2c(=O)n(OC[C@H](O)CO)cnc21 ?
// result 0

// query Could you share which %Inh value was measured for O=C(NCc1cccs1)c1cc(C(=O)c2c(Cl)cccc2Cl)c[nH]1 ?
// result 0

// query Could you share which %Inh value was measured for FC(F)(F)c1ccc(-c2ncn(CCCN3CCOCC3)c2-c2ccncc2)cc1 ?
// result 33

// query Could you share which %Inh value was measured for CCCNC(=O)Nc1ccc(Oc2ncnc3ccn(C)c23)cc1 ?
// result 0

// query Could you share which %Inh value was measured for CCC(=O)c1c(-c2ccccc2)c2cc(Cl)ccc2c(=O)n1Cc1cc(S(C)(=O)=O)n(CC(F)F)n1 ?
// result 0

// query Could you share which %Inh value was measured for Cc1nnc(-c2ccc(C)c(-c3ccc(C(=O)O)cc3)c2)o1 ?
// result 0

----------
Tested on: PAK4
test_settings: concentration: 1 μM, replicates: in singlicate; n = 1
metric_name: %Inh (%)
Give the quantity in %, number only.

Worked set:
CCS(=O)c1ccc(-c2coc3ccc(-c4nnc(C)o4)cc23)cc1 (stereo not drawn)
0
CCC(=O)c1c(-c2ccccc2)c2cc(Cl)ccc2c(=O)n1Cc1cc(S(C)(=O)=O)n(CC(F)F)n1
0
COc1cc(Nc2nccc(N3CCC(NC(=O)C4COc5ccccc5O4)C3)n2)cc(OC)c1OC (stereo not drawn) [GSK1379761]
0

Now examine the next entry.
// query Could you share which %Inh value was measured for CCn1c(-c2ccoc2)nc2cnccc21 [SB-733887] ?
// result 0

----------
Tested on: STK16
test_settings: concentration: 1 μM, replicates: in singlicate; n = 1
metric_name: %Inh (%)
Give the quantity in %, number only.

// query Could you share which %Inh value was measured for Nc1ncnc2c1ncn2-c1cccc(F)c1 ?
// result 6

// query Could you share which %Inh value was measured for CCC(=O)c1c(-c2ccccc2)c2cc(Cl)ccc2c(=O)n1Cc1cc(S(C)(=O)=O)n(CC(F)F)n1 ?
// result 0

// query Could you share which %Inh value was measured for COc1ccc(CNC(=O)NC2CCN(c3ccnc(Nc4ccc(F)cc4)n3)C2)cc1 (centres unmarked) ?
// result 19

// query Could you share which %Inh value was measured for COc1cc2nccc(Nc3ccc(OCc4ccc(NC(C)=O)cc4)cc3)c2cc1OC.Cl ?
// result 2

// query Could you share which %Inh value was measured for CCn1c(-c2nonc2N)nc2ccccc21 ?
// result 23

// query Could you share which %Inh value was measured for Cn1c(=O)c(F)c(Nc2ccc(I)cc2F)c2c(=O)n(OC[C@H](O)CO)cnc21 ?
// result 14

// query Could you share which %Inh value was measured for FC(F)(F)c1ccc(-c2ncn(CCCN3CCOCC3)c2-c2ccncc2)cc1 ?
// result 9

// query Could you share which %Inh value was measured for C[C@@H]1CC[C@H](C(=O)NC2CCCCC2)CN1c1cc(-c2ccc3c(N)n[nH]c3c2)nc(N)n1 ?
// result 21

----------
System: IGF1R
test_settings: concentration: 1 μM, replicates: in singlicate; n = 1
metric_name: %Inh

// query Could you share which %Inh value was measured for Cc1ccccc1COc1cc(-n2cnc3cc(Cl)ccc32)sc1C(N)=O ?
// result 9%

// query Could you share which %Inh value was measured for COC(=O)c1c(-c2ccccc2)c2cc(Br)ccc2c(=O)n1Cc1ccc(S(C)(=O)=O)cc1 ?
// result 9%

// query Could you share which %Inh value was measured for Cc1cc(Nc2nc(-c3cccc(C)n3)nc3ccccc23)ccn1 ?
// result 0%

// query Could you share which %Inh value was measured for COc1cc2nccc(Nc3ccc(OCc4ccc(NC(C)=O)cc4)cc3)c2cc1OC.Cl ?
// result 0%

// query Could you share which %Inh value was measured for O=C(Nc1ccc2c(c1)OCO2)NC1CCN(c2ccnc(NCc3ccc(F)cc3)n2)CC1 ?
// result 0%

// query Could you share which %Inh value was measured for Nc1nc(-c2ccccc2F)c(-c2ccnc3ccccc23)s1 ?
// result 20%

// query Could you share which %Inh value was measured for Cl.c1ccc(Cn2cnc3cc(Nc4ncnc5ccccc45)ccc32)cc1 ?
// result 34%

----------
System: PAK2
test_settings: concentration: 1 μM, replicates: in singlicate; n = 1
metric_name: %Inh (%)
Give the quantity in %, number only.

Worked set:
O=c1cc(N2CCOCC2)nc2n(Cc3ccc(F)c(Cl)c3)ccn12 [GSK2297099]
5
COc1ccc(-c2cc3c(C)nc(N)nc3n([C@H]3CC[C@H](OCCO)CC3)c2=O)cn1
1
CN(C)c1cc(-c2ccc3c(N)n[nH]c3c2)nc(N)n1 [GSK2219329]
0
OCCCNc1nccc(-c2c(-c3cccc(C(F)(F)F)c3)nn3cc(C(F)(F)F)ccc23)n1 [GW630813]
0
Nc1ncnc2c1ncn2-c1ccc(Cl)cc1 [AH2635]
0
COc1cccc(C2=C(Nc3cccc(C(=O)O)c3)C(=O)NC2=O)c1 [SB-390770]
0
O=C(Nc1n[nH]c2nc(-c3ccccc3)c(Br)cc12)C1CC1 [SB-708998]
10
Cl.c1ccc(Cn2cnc3cc(Nc4ncnc5ccccc45)ccc32)cc1 [GW272142]
0

Now examine the next entry.
// query Could you share which %Inh value was measured for Cc1cc(Nc2nc(-c3cccc(C)n3)nc3ccccc23)ccn1 [GW872411] ?
// result 15

----------
Test system: MINK
Construct: gene MINK1
test_settings: concentration: 1 μM, replicates: in singlicate; n = 1
metric_name: %Inh (%)
Give the quantity in %, number only.

// query Could you share which %Inh value was measured for Cc1nn2c(=O)cc(N3CCOCC3)nc2n1Cc1cccc(Cl)c1Cl ?
// result 0

// query Could you share which %Inh value was measured for COc1cc2ncn(-c3cc(OCCCc4ccccc4)c(C(N)=O)s3)c2cc1OC ?
// result 3

// query Could you share which %Inh value was measured for CCn1c(-c2nonc2N)nc2ccccc21 ?
// result 36

// query Could you share which %Inh value was measured for COC(=O)c1c(-c2ccccc2)c2cc(Br)ccc2c(=O)n1Cc1ccc(NC(=O)CCC(=O)O)cc1 ?
// result 0

// query Could you share which %Inh value was measured for Cc1ccccc1COc1cc(-n2cnc3cc(Cl)ccc32)sc1C(N)=O ?
// result 35

// query Could you share which %Inh value was measured for CCC(=O)c1c(-c2ccccc2)c2cc(Cl)ccc2c(=O)n1Cc1cc(S(C)(=O)=O)n(CC(N)=O)n1 ?
// result 14

// query Could you share which %Inh value was measured for Cn1c(=O)c(F)c(Nc2ccc(I)cc2F)c2c(=O)n(OC[C@H](O)CO)cnc21 ?
// result 0

// query Could you share which %Inh value was measured for Cc1cccc(-c2cc(-c3c[nH]nc3-c3ccccn3)ccn2)c1 ?
// result 38

// query Could you share which %Inh value was measured for CCCC(=O)Nc1n[nH]c2ncc(-c3cccc4ccccc34)cc12 ?
// result 21
